biological target: recombinant IL4I1 (Homo sapiens (Human), UniProt Q96RQ9); assay: IL4I1 Enzymatic Assay (Amplex Red/HRP coupled H2O2 detection); conditions: 1 nM IL4I1, 1 mM each Phe/Tyr/Trp, four-hour pre-incubation, 120 minutes reaction, top compound concentration of 10000 nM
Sequence (Q96RQ9 22-567): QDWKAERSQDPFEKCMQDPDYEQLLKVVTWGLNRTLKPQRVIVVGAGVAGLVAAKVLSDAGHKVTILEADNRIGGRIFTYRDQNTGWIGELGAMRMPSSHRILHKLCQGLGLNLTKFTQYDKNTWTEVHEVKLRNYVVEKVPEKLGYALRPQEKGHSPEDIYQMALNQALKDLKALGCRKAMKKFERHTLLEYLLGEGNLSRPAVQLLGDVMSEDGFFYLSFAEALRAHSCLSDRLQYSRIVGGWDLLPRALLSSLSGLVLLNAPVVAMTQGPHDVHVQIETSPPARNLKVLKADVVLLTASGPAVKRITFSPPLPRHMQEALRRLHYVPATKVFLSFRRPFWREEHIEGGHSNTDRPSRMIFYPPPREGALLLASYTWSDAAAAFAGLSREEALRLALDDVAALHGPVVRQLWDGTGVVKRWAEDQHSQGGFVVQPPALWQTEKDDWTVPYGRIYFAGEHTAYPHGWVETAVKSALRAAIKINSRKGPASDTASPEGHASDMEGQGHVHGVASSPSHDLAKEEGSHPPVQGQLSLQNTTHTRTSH
pEC50: −log10 of the molar value.

{"columns": ["COMPOUND", "pEC50"],
 "data": [
  ["O=c1[nH]c2cccnc2cc1Cc1cccc(OC(F)(F)F)c1", 6.21],
  ["O=c1[nH]c2ccccc2cc1Cc1nnc(Cc2ccc(Br)cc2)o1", 6.90],
  ["CN1C(=O)COc2ccc(Cc3cc4ccccc4[nH]c3=O)cc21", 8.64],
  ["N#Cc1cn[nH]c1-c1nnc(Cc2cc3ccccc3[nH]c2=O)o1", 7.87],
  ["CC(=O)N1Cc2ccc(Cc3cc4ccccc4[nH]c3=O)cc2C1", 8.42],
  ["O=c1[nH]c2ccccc2cc1Cc1cnc(-c2ccc(F)cc2)o1", 7.43],
  ["CC(=O)NCc1ncc(Cc2cc3ccccc3[nH]c2=O)cc1F", 8.00],
  ["N#CC1CC(Oc2ccc(Cc3cc4ccccc4[nH]c3=O)cc2)C1 (stereo not drawn)", 8.77],
  ["O=C1CCc2cc(Cc3cc4ccccc4[nH]c3=O)ccc2N1", 8.27]
]}
